Target: IDO (Homo sapiens, UniProt P14902)
Sequence (P14902 whole entry): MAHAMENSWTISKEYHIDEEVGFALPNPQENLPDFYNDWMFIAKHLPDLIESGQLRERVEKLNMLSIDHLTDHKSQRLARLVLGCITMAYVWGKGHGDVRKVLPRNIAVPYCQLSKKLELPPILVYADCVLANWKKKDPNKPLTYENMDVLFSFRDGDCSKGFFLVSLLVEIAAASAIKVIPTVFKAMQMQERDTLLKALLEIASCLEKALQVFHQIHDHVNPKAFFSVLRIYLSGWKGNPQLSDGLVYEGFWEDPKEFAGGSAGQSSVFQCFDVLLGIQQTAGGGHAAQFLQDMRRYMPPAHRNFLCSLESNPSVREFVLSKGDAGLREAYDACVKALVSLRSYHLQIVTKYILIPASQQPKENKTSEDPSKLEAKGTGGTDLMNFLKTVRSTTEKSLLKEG
Assay: SKOV3 kynurenine cell-based assay (IDO induced by IFN-γ)
Parameters: IDO expression was induced in the SKOV3 cells by the addition of 500 ng/ml IFN-γ; endogenous in cells; host or cells: SKOV3 (human ovarian adenocarcinoma), induced with IFN-γ
Details: SKOV3 human ovarian adenocarcinoma cells, 500 ng/ml IFN-γ, 48 hours, 500 μM L-tryptophan; read-out: SKOV3 Kynurenine cell based assay pIC50 (converted)
Measure Name: IC50

Example cases with answers are listed next.
CC(=O)N1CCN(c2cc(F)cc3[nH]ncc23)CC1 | > 100 µM
Clc1cc(-c2cnn(-c3ccccc3)c2)c2cn[nH]c2c1 | > 100 µM
Cn1ccnc1N1CCN(c2cc(Cl)cc3[nH]ncc23)CC1 | > 100 µM
Clc1cc(N2CCC(N3CCOCC3)CC2)c2cn[nH]c2c1 | > 100 µM

Query molecule follows.
Name the recorded IC50 of CS(=O)(=O)NCCN1C(=O)NC2(CCN(c3cc(Cl)cc4[nH]ncc34)CC2)C1=O , assay system IDO (Homo sapiens, UniProt P14902).
3.24 to 31.6 µM

====

Molecular target: TDO (Homo sapiens, UniProt P48775)
Sequence (P48775 whole entry): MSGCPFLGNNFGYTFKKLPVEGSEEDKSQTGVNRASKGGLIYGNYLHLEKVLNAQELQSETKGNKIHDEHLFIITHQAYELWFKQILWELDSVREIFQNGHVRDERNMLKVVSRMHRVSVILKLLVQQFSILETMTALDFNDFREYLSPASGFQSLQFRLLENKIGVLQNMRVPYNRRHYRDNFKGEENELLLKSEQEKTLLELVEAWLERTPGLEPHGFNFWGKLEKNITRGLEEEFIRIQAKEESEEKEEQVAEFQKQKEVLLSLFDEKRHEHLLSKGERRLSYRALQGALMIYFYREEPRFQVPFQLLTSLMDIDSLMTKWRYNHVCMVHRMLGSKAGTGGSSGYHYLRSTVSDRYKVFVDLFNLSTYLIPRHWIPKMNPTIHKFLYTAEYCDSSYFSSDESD
Experiment: A172 kynurenine cell-based assay
Parameters: This assay utilised cancer cells which expressed either TDO or IDO; endogenous in cells; host or cells: A172 (human glioblastoma)
Settings: A172 human glioblastoma cells, 48 hours, 500 μM L-tryptophan; read-out: A172 Kynurenine cell based assay pIC50 (converted)
Each entry below carries its recorded IC50.

CS(=O)(=O)N1CCN(c2cc(N3CCCC3)cc3[nH]ncc23)CC1 | 32.4 to 100 µM
CC1(C)CN(c2cc(C(F)(F)F)cc3[nH]ncc23)CCN1S(C)(=O)=O | < 3.16 µM
CNC(=O)N1CCN(c2cc(Cl)cc3[nH]ncc23)CC1 | < 3.16 µM
CC(C)CNC(=O)c1cc(Cl)cc2[nH]ncc12 | 3.24 to 31.6 µM
CNC(=O)N1CCC(c2cc(Cl)cc3[nH]ncc23)CC1 | < 3.16 µM

GET IC50 where system = TDO (Homo sapiens, UniProt P48775) and item = O=C(NCC1CCCCC1)c1cc(Cl)cc2[nH]ncc12
> 100 µM

Look up TDO (Homo sapiens, UniProt P48775) data: IC50 of CCC1CN(c2cc(Cl)cc3[nH]ncc23)CCN1C(C)=O (stereo not drawn) , then report it.
< 3.16 µM

Please tell me the measured IC50 for CC(C)(O)c1cc(Cl)cc2[nH]ncc12 ; system: TDO (Homo sapiens, UniProt P48775).
< 3.16 µM

Write IC50 of CC(=O)N1CCN(c2cc(C3CCCC3)cc3[nH]ncc23)CC1 ; system used: TDO (Homo sapiens, UniProt P48775)
32.4 to 100 µM

====

Target: UniProtKB P14902
Experiment: SKOV3 kynurenine cell-based assay (IDO induced by IFN-γ)
Design: IDO expression was induced in the SKOV3 cells by the addition of 500 ng/ml IFN-γ; endogenous in cells; host or cells: SKOV3 (human ovarian adenocarcinoma), induced with IFN-γ
Conditions: SKOV3 human ovarian adenocarcinoma cells, 500 ng/ml IFN-γ, 48 hours, 500 μM L-tryptophan; read-out: SKOV3 Kynurenine cell based assay pIC50 (converted)
Procedure: Exemplary compounds of the invention were prepared, and tested to determine their effect as TDO and/or IDO inhibitors. […] This coupled enzyme system allowed conversion of N-formylkynurenine produced by TDO or IDO activity to kynurenine which was then quantified by fluorescence following addition of Erhlich's Reagent The protocols for these are set out below. […]
Catalogue of compounds with associated IC50

Cc1nc2c(n1C)CN(c1cc(C(F)(F)F)cc3[nH]ncc13)CC2 [Compound 357] | < 3.16 µM
CC(=O)N1CCCN(c2cc(Cl)cc3[nH]ncc23)CC1 [Compound 71] | 3.24 to 31.6 µM
C[C@H]1CN(S(C)(=O)=O)CCN1c1cc(C(F)(F)F)cc2[nH]ncc12 [Compound 214] | 3.24 to 31.6 µM

Fill in IC50 for record CC(O)C(=O)N1CCC(c2cc(Cl)cc3[nH]ncc23)CC1 (stereo not drawn) [Compound 177]
3.24 to 31.6 µM

State its IC50: CC(C)COc1cccc2[nH]ncc12 [Compound 262]
3.24 to 31.6 µM

Tell me its IC50 given CS(=O)(=O)NCCn1cc(-c2cc(Cl)cc3[nH]ncc23)cn1 [Compound 373] as the entry.
32.4 to 100 µM

Supply IC50 value. Item: CC1(C)CN(c2cc(-c3ncco3)cc3[nH]ncc23)CCN1S(C)(=O)=O [Compound 171]
> 100 µM

Indicate the recorded IC50 value for this compound: Clc1cc(N2CCN(c3ccccn3)CC2)c2cn[nH]c2c1 [Compound 324]
3.24 to 31.6 µM

# return recorded IC50 for entry CS(=O)(=O)NC1CCN(c2cc(Cl)cc3[nH]ncc23)C1 (stereo not drawn) [Compound 193]
3.24 to 31.6 µM
